Method notes: Plasma pharmacokinetics after oral administration of YCHT in control (normal) rats, UHPLC-MS/MS
Assay type: in vivo, Sprague-Dawley rats
Cond: control rats, oral YCHT 60 g/kg, plasma, n = 6
# AUC0–∞ annotations
Give just the number in ug/L∗h; leave the unit off.

These solved cases illustrate the format of a correct answer.
{"columns": ["Compound", "Unit abbrev", "Measured result"],
 "data": [
  ["COC(=O)C1=CO[C@@H](O[C@@H]2O[C@H](CO)[C@@H](O)[C@H](O)[C@H]2O)[C@@H]2C(CO)=CC[C@H]12 [Geniposide]", "ug/L∗h", 1958.65],
  ["O=C1c2cccc(O)c2C(=O)c2c(O)cc(CO)cc21", "ug/L∗h", 60.86],
  ["COc1cc2ccc(=O)oc2cc1OC", "ug/L∗h", 2347.92],
  ["COc1cc(O)c2c(c1)C(=O)c1cc(C)cc(O)c1C2=O", "ug/L∗h", 22.44],
  ["O=C(O)c1cc(O)c2c(c1)C(=O)c1cccc(O)c1C2=O", "ug/L∗h", 2074.39],
  ["COc1cc2ccc(=O)oc2cc1O", "ug/L∗h", 7.41]
]}

Here's the next entry for you.
What value of measured AUC0–∞ is listed for Cc1cc(O)c2c(c1)C(=O)c1cc(O)cc(O)c1C2=O ?
12.06
